assay.system: HDAC8 (Homo sapiens, UniProt Q9BY41)
Sequence (Q9BY41 whole entry): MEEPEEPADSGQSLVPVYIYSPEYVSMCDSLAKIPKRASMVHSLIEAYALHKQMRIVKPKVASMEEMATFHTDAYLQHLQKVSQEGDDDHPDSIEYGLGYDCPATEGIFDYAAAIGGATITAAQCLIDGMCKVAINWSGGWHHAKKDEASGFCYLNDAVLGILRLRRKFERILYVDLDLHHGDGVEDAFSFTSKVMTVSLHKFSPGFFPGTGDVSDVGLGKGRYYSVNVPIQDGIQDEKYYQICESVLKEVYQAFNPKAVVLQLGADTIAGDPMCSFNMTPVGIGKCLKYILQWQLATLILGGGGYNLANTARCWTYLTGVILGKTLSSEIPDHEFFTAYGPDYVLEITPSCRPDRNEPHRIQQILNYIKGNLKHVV
test.name: HDAC enzymatic assay, HDAC8
Assay type: biochemical
condition.context: fluorogenic tetrapeptide RHKKAc substrate 10 μM; read-out: HDAC isoforms IC50 (nM), 8
endpoint.name: IC50

Consider the following illustrative entries.
compound: Cc1cccc(CCNC(=O)[C@H](CCCCCS)NC(=O)[C@@H]2CCCC(=O)N2)c1
assay.system: HDAC8 (Homo sapiens, UniProt Q9BY41)
value.reported: < 50 nM

compound: O=C1NCCC[C@H]1C(=O)N[C@@H](CCCCCS)C(=O)Nc1ccccc1
assay.system: HDAC8 (Homo sapiens, UniProt Q9BY41)
value.reported: 50 to 100 nM

compound: Cc1cccc(NC(=O)[C@H](CCCCCS)NC(=O)[C@@H]2CCCC(=O)N2)c1
assay.system: HDAC8 (Homo sapiens, UniProt Q9BY41)
value.reported: 100 to 500 nM

compound: O=C1CCC[C@@H](C(=O)N[C@@H](CCCCCS)C(=O)N2CCc3ccccc3C2)N1
assay.system: HDAC8 (Homo sapiens, UniProt Q9BY41)
value.reported: 100 to 500 nM

compound: O=C1NC[C@@H](c2ccccc2)[C@H]1C(=O)N[C@@H](CCCCCS)C(=O)Nc1ccccc1
assay.system: HDAC8 (Homo sapiens, UniProt Q9BY41)
value.reported: 100 to 500 nM

compound: CN1C(=O)CCC[C@H]1C(=O)N[C@@H](CCCCCS)C(=O)Nc1ccccc1
assay.system: HDAC8 (Homo sapiens, UniProt Q9BY41)
value.reported: 100 to 500 nM

Prompt: Which IC50 value belongs to O=C1CC[C@H](C(=O)N[C@@H](CCCCCS)C(=O)Nc2ccccc2)N1 ?
Response: 100 to 500 nM

Prompt: Same lookup for O=C1CCC[C@@H](C(=O)N[C@@H](CCCCCS)C(=O)Nc2ccccc2)N1 , please.
Response: 100 to 500 nM

Prompt: Same lookup for O=C1CCC[C@H](C(=O)N[C@@H](CCCCCS)C(=O)Nc2ccccc2)N1 , please.
Response: 100 to 500 nM

Prompt: Same lookup for O=C1NC[C@@H](c2ccccc2)[C@@H]1C(=O)N[C@@H](CCCCCS)C(=O)Nc1ccccc1 , please.
Response: < 50 nM

Prompt: Same lookup for O=C1C[C@@H](C(=O)N[C@@H](CCCCCS)C(=O)Nc2ccccc2)N1 , please.
Response: 50 to 100 nM

Prompt: Same lookup for O=C1CCC[C@@H](C(=O)N[C@@H](CCCCCS)C(=O)NC2CCCC2)N1 , please.
Response: 100 to 500 nM

====

// values below are reported IC50
assay.system: HDAC9 (Homo sapiens, UniProt Q9UKV0)
Sequence (Q9UKV0 whole entry): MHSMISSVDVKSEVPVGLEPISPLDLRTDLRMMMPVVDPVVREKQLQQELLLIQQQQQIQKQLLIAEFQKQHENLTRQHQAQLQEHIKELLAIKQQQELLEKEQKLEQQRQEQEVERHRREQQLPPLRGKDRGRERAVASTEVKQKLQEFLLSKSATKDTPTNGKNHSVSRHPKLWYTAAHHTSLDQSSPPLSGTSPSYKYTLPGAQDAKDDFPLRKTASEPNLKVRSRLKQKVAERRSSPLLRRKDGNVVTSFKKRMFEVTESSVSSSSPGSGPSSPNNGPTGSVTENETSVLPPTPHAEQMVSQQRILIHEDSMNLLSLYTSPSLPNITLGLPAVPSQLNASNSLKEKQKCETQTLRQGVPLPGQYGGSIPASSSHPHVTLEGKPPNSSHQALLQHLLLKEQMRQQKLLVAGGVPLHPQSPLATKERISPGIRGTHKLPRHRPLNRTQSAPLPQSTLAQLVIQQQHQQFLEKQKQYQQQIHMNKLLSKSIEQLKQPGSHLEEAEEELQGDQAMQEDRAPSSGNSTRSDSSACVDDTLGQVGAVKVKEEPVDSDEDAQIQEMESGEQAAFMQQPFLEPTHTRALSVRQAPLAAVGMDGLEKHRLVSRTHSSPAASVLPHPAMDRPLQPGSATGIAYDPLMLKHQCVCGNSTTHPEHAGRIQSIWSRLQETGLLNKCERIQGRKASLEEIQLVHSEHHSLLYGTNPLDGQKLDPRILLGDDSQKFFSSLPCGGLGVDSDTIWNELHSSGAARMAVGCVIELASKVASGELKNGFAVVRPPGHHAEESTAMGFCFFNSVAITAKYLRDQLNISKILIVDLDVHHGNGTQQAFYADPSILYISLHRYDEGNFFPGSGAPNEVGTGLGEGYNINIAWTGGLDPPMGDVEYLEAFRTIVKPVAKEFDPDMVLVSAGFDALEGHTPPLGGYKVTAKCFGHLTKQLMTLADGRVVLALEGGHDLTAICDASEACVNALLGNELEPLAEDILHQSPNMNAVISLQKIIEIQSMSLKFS
test.name: HDAC enzymatic assay, HDAC9
Assay type: biochemical
condition.context: fluorogenic tetrapeptide RHKKAc substrate 10 μM; read-out: HDAC isoforms IC50 (nM), 9

compound: O=C1CCC[C@@H](C(=O)N[C@@H](CCCCCS)C(=O)N2CCc3ccccc3C2)N1 [Example 32]
endpoint.name: IC50
value.reported: 100 to 500 nM

compound: Cc1ccc(NC(=O)[C@H](CCCCCS)NC(=O)[C@@H]2CCCC(=O)N2)cc1 [Example 39]
endpoint.name: IC50
value.reported: < 50 nM

compound: O=C1NC[C@@H](c2ccccc2)[C@H]1C(=O)N[C@@H](CCCCCS)C(=O)Nc1ccccc1 [Example 29]
endpoint.name: IC50
value.reported: 50 to 100 nM

compound: Cc1cccc(NC(=O)[C@H](CCCCCS)NC(=O)[C@@H]2CCCC(=O)N2)c1 [Example 38]
endpoint.name: IC50
value.reported: < 50 nM

compound: O=C1CCC[C@@H](C(=O)N[C@@H](CCCCCS)C(=O)NCc2ccc(C(F)(F)F)cc2)N1 [Example 26]
endpoint.name: IC50
value.reported: 100 to 500 nM

Prompt: Notebook entry, HDAC9 (Homo sapiens, UniProt Q9UKV0) assay: IC50 of O=C1CCC[C@H](C(=O)N[C@@H](CCCCCS)C(=O)Nc2ccccc2)N1 [Example 37] = ?
Response: < 50 nM

Prompt: Same lookup for O=C1NCCC[C@H]1C(=O)N[C@@H](CCCCCS)C(=O)Nc1ccccc1 [Example 35] , please.
Response: < 50 nM

Prompt: Same lookup for O=C1NCCC[C@@H]1C(=O)N[C@@H](CCCCCS)C(=O)Nc1ccccc1 [Example 36] , please.
Response: < 50 nM

Prompt: Same lookup for CN1C(=O)CCC[C@H]1C(=O)N[C@@H](CCCCCS)C(=O)Nc1ccccc1 [Example 40] , please.
Response: < 50 nM

Prompt: Same lookup for O=C1NC[C@@H](c2ccccc2)[C@@H]1C(=O)N[C@@H](CCCCCS)C(=O)Nc1ccccc1 [Example 31] , please.
Response: < 50 nM
